Each record here notes measured SC150.
Biological target: recombinant His-tag Y220C p53 DNA binding domain (Homo sapiens, UniProt P04637, Y220C)
Construct: Y220C p53 DBD protein (amino acids #94-312); made in house
Test: TR-FRET DNA binding assay (SC150)
Assay type: biochemical
Conditions: Table 1; concentration required to increase DNA binding by 1.5-fold
Excerpt: At the outset of our hit generation campaign, several small molecules targeting the p53 Y220C mutant protein were identified. Two notable examples, supported by crystallographic data, were the compounds from the carbazole series[6] […] To assess the in vitro potency of the p53 Y220C reactivators, a time-resolved fluorescence resonance energy transfer (FRET) assay was developed. […] The substrate concentration required to increase DNA binding by 1.5-fold (SC150) could then be determined. […]
parameter.measured: SC150 (µM)

• CC(C)(C#N)c1ccc(NCC#Cc2cc3cc(CNC4CCOCC4)ccc3n2CC(F)(F)F)cn1 = 0.48
• CCn1c(C#CCNc2ccc(C(C)(C)C#N)nc2)cc2cc(CNC3CCOCC3)ccc21 = 1.3
• CCn1c(C#CCNc2ccc(C(C)(C)C)nc2)cc2cc(CNC)ccc21 = 6.4

###

molecular target: recombinant His-tag Y220C p53 DNA binding domain (Homo sapiens, UniProt P04637, Y220C); construct: Y220C p53 DBD protein (amino acids #94-312); made in house; experiment: TR-FRET DNA binding assay (SC150); type: biochemical; conditions: Table 3; concentration required to increase DNA binding by 1.5-fold
parameter.measured: SC150

• COc1cc(C(N)=O)ccc1NCC#Cc1cc2c(N[C@@H]3CCN(C)C[C@@H]3F)cccc2n1CC(F)(F)F = 8 nM
• COc1cc(C(=O)N2CC3(COC3)C2)ccc1NCC#Cc1cc2c(N[C@@H]3CCN(C)C[C@@H]3F)cccc2n1CC(F)(F)F = 7 nM
• COc1cc(C(=O)N2CCN(C)CC2)ccc1NCC#Cc1cc2c(N[C@@H]3CCN(C)C[C@@H]3F)cccc2n1CC(F)(F)F = 9 nM
• COc1cc(C(=O)NCC(O)CO)ccc1NCC#Cc1cc2c(N[C@@H]3CCN(C)C[C@@H]3F)cccc2n1CC(F)(F)F (stereo partly shown) = 8 nM
